- test.system: AT1 S105A mutant receptor (Rattus norvegicus, UniProt P25095, S105A)
- Sequence (P25095 1-359 S105A): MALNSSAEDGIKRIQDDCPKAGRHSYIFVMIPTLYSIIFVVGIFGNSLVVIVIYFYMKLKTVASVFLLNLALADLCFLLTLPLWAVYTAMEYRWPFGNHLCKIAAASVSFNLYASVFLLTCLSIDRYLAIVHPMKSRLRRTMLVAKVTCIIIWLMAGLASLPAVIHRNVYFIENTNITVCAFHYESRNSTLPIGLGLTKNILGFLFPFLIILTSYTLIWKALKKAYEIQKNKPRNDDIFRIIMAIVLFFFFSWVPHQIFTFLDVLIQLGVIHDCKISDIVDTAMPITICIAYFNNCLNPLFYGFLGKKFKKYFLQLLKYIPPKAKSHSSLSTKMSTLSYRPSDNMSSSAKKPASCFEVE
- procedure.text: competition binding, S105A mutant
- protocol.conditions: S105A (S105 in the source); COS1 membranes; read-out: Binding affinity (Kd)
endpoint.label: pKd
Just the number, please; pKd means minus log10 of the concentration in mol/L.

// worked examples, pKd included
- CCCc1nc(C(C)(C)O)c(C(N)=O)n1Cc1ccc(-c2ccccc2-c2nnn[nH]2)cc1 [R239470]: 8.49
- CCCc1nc(C(C)(C)O)c(C(N)=O)n1Cc1ccc(-c2cc(Cc3ccc(O)cc3)ccc2-c2nnn[nH]2)cc1 [R794847]: 7.43

Next item in the queue.
Supply pKd value. Item: CCCc1nc(C(C)(C)O)c(C(=O)O)n1Cc1ccc(-c2ccccc2-c2nnn[nH]2)cc1 [Olmesartan, olmesartan, reference compound] 8.17
